Source: paper PMC3315833

- Test system: MCF-7 breast cancer cells
- protocol_summary: Cytotoxicity against MCF-7 cells
- stated_conditions: read-out: IC50, cytotoxicity against MCF-7 cells
pIC50: −log10 of the molar value.
observed_property: pIC50

Consider the compound C=C[C@]1(C)CC[C@H]2C(=C1C#N)c1c([nH]c3ccccc13)C2(C)C (relative stereo) [Compound 2, deschloro 12-epi-fischerindole I nitrile] and give its recorded pIC50.
< 4.40

----------
- Tested on: HT-29 colon cancer cells
- protocol_summary: Cytotoxicity against HT-29 cells
- stated_conditions: read-out: IC50, cytotoxicity against HT-29 cells
observed_property: pIC50
pIC50 (log units): -log10 of the concentration in mol/L.

Consider the compound C=C[C@]1(C)CC[C@H]2C(=C1C#N)c1c([nH]c3ccccc13)C2(C)C (relative stereo) [Compound 2, deschloro 12-epi-fischerindole I nitrile] and give its recorded pIC50.
4.64
